List of selectivity ratio values.
# MEASUREMENT NOTES: Selectivity index, ratio of IC50 for African green monkey Vero cells to MIC99 for Mycobacterium tuberculosis mc2 6230
# Format: toxicity
# TEST PARAMETERS: read-out: Selectivity Index

{"columns": ["SMILES ENTRY", "CENSORING QUALIFIER", "selectivity ratio"],
 "data": [
  ["O=C(NNC(=O)c1ccc2c(c1)C(=O)N(CCCCNc1ccnc3cc(Cl)ccc13)C2=O)c1ccncc1", "=", 0.7],
  ["O=C(NNC(=O)c1ccc(N2C(=O)c3ccccc3C2=O)cc1)c1ccncc1", ">", 2],
  ["O=C(NCCNc1ccnc2cc(Cl)ccc12)c1ccc2c(c1)C(=O)N(NC(=O)c1ccncc1)C2=O", "=", 10.6],
  ["O=C(NNC(=O)c1ccc2c(c1)C(=O)N(CCNc1ccnc3cc(Cl)ccc13)C2=O)c1ccncc1", ">", 0.5],
  ["O=C(NN1C(=O)c2ccc(N3CCN(c4ccnc5cc(Cl)ccc45)CC3)cc2C1=O)c1ccncc1", ">", 32.5],
  ["O=C(O)c1ccc2c(c1)C(=O)N(CCCCCCNc1ccnc3cc(Cl)ccc13)C2=O", "=", 0.11],
  ["O=C(O)c1ccc2c(c1)C(=O)N(CCNc1ccnc3cc(Cl)ccc13)C2=O", ">", 0.5],
  ["O=C(NNC(=O)c1ccc2c(c1)C(=O)N(CCCCCCCCNc1ccnc3cc(Cl)ccc13)C2=O)c1ccncc1", "=", 25],
  ["O=C(NCCCCNc1ccnc2cc(Cl)ccc12)c1ccc2c(c1)C(=O)N(NC(=O)c1ccncc1)C2=O", "=", 0.6],
  ["O=C(NN1C(=O)c2ccc(C(=O)OCCNc3ccnc4cc(Cl)ccc34)cc2C1=O)c1ccncc1", ">", 0.5],
  ["O=C(O)c1ccc2c(c1)C(=O)N(CCCCCCCCNc1ccnc3cc(Cl)ccc13)C2=O", ">", 0.5]
]}
